- Tested on: corn
- Experimental Details: Test B pre/postemergence corn
- Assay type: in vivo, Zea mays
- Run Parameters: Preemergence, Rate 62 g/ha; scale 0 to 10 (0 no effect, 10 complete control)
Reported Corn plant response rating values for the following molecules.
Format: numeric value only, no unit, no commentary.

// below: answered molecules
CCc1nc(C)c(C(C)n2c(=O)on(C(=O)N(c3ccc(F)cc3F)C(C)C)c2=O)s1 (stereo not shown) [Compound 589]
0
CCC(C)n1c(=O)on(C(=O)N(c2ccc(F)cc2)C(C)C)c1=O (stereo not shown) [Compound 613]
2
COC(=O)CCCn1c(=O)on(C(=O)N(c2ccccc2)C(C)C)c1=O [Compound 572]
0

State recorded Corn plant response rating with corn, entry CCn1c(=O)on(C(=O)N(c2ccc(Cl)cc2)C(C)C)c1=O [Compound 108] , no comment. 0

* * *

- System: pigweed
- Experimental Details: Test B pre/postemergence pigweed
- Assay type: in vivo, Amaranthus retroflexus
- Run Parameters: Preemergence, Rate 62 g/ha; scale 0 to 10 (0 no effect, 10 complete control)
Reported Redroot pigweed plant response rating values for the following compounds.
Format: numeric value only, no unit, no commentary.

// below: answered compounds
CCC(C)n1c(=O)on(C(=O)N(c2ccc(F)cc2)C(C)C)c1=O (centres unmarked) [Compound 613]
10
CC(C)N(C(=O)n1oc(=O)n(CC(C)[N+](=O)[O-])c1=O)c1ccccc1 (centres unmarked) [Compound 604]
0
CC(C)N(C(=O)n1oc(=O)n(C2CCCCC2C(F)(F)F)c1=O)c1ccc(F)cc1 (centres unmarked) [Compound 99]
0

Return Redroot pigweed plant response rating (reported value) for this compound: Cc1nn(C)c(C)c1-n1c(=O)on(C(=O)N(c2ccccc2)C(C)C)c1=O [Compound 120] 7

Return Redroot pigweed plant response rating (reported value) for this compound: CCc1noc(CC)c1-n1c(=O)on(C(=O)N(c2ccc(F)cc2)C(C)C)c1=O [Compound 102] 0

Return Redroot pigweed plant response rating (reported value) for this compound: CC(C)N(C(=O)n1oc(=O)n(CC2CC2)c1=O)c1ccccc1 [Compound 568] 2

Return Redroot pigweed plant response rating (reported value) for this compound: CC(Cl)=CCn1c(=O)on(C(=O)N(c2ccccc2)C(C)C)c1=O [Compound 573] 0

Return Redroot pigweed plant response rating (reported value) for this compound: CCOC(Cn1c(=O)on(C(=O)N(c2ccccc2)C(C)C)c1=O)OCC [Compound 632] 0

* * *

- Test system: soybean
- Experimental Details: Test B pre/postemergence soybean
- Assay type: in vivo, Glycine max
- Run Parameters: Rate 250 g/ha, Postemergence; scale of 0 to 10 where 0 is no effect and 10 is complete control
- Method: […] At the same time, these crop and weed species were also treated with postemergence applications of test chemicals formulated in the same manner. […] Treated plants and controls were maintained in a greenhouse for twelve to sixteen days, after which all species were compared to controls and visually evaluated. […]
Metric: Plant response rating, Soybean
Format: numeric value only, no unit, no commentary.

// below: answered compounds
CC(C)N(C(=O)n1oc(=O)n(C2CC3CCC2C3)c1=O)c1ccc(F)cc1F (stereo not shown) [Compound 326]
5
CC(C)N(C(=O)n1oc(=O)n(C2CCCC2)c1=O)c1ccc(F)cc1F [Compound 284]
4

Return Plant response rating, Soybean (reported value) for this compound: CC(C)C(C)n1c(=O)on(C(=O)N(c2ccc(F)cc2)C(C)C)c1=O (stereo not shown) [Compound 316] 4

Return Plant response rating, Soybean (reported value) for this compound: CC(C)N(C(=O)n1oc(=O)n(CCC2OCCO2)c1=O)c1ccc(Cl)cc1 [Compound 531] 6

Return Plant response rating, Soybean (reported value) for this compound: CCCCCn1c(=O)on(C(=O)N(c2ccc(Cl)cc2)C(C)C)c1=O [Compound 528] 5

Return Plant response rating, Soybean (reported value) for this compound: CC(C)N(C(=O)n1oc(=O)n(CC2CC2)c1=O)c1ccccc1 [Compound 568] 6

Return Plant response rating, Soybean (reported value) for this compound: CC(C)=CCn1c(=O)on(C(=O)N(c2ccc(F)cc2)C(C)C)c1=O [Compound 288] 2

* * *

Reported Morningglory plant response rating values for the following compounds.
- Tested on: morningglory
- Experimental Details: Test B pre/postemergence morningglory
- Type: in vivo, Ipomoea hederacea
- Run Parameters: Preemergence, Rate 62 g/ha; scale of 0 to 10 where 0 is no effect and 10 is complete control
Format: numeric value only, no unit, no commentary.

// below: answered compounds
CC(C)N(C(=O)n1oc(=O)n(C(C)C2CCC2)c1=O)c1ccccc1 (stereo not drawn) [Compound 717]
0
CC(C)N(C(=O)n1oc(=O)n(CCC(=O)N(C)C)c1=O)c1ccc(Cl)cc1 [Compound 719]
0

Return Morningglory plant response rating (reported value) for this compound: CC(C)N(C(=O)n1oc(=O)n(C(C)C(=O)c2ccccc2)c1=O)c1ccc(F)cc1 (stereo not drawn) [Compound 260] 0

* * *

- Tested on: surinam grass
- Experimental Details: Test B pre/postemergence surinam grass
- Type: in vivo, Brachiaria decumbens
- Run Parameters: Preemergence, Rate 250 g/ha; scale of 0 to 10 where 0 is no effect and 10 is complete control
Reported Plant response rating, B. signalgrass values for the following compounds.
Format: numeric value only, no unit, no commentary.

// below: answered compounds
Cc1ccccc1-n1c(=O)on(C(=O)N(c2ccc(F)cc2)C(C)C)c1=O
8
CC(C)N(C(=O)n1oc(=O)n(Cc2cccs2)c1=O)c1ccccc1
7
CCN(CC)C(=O)n1oc(=O)n(-c2ccc(OC)cc2)c1=O
0

Return Plant response rating, B. signalgrass (reported value) for this compound: CC(C)N(C(=O)n1oc(=O)n(-c2ccc(OC(F)(F)F)cc2)c1=O)C1=CCOCC1 2

Return Plant response rating, B. signalgrass (reported value) for this compound: Cc1nn(C)c(C)c1-n1c(=O)on(C(=O)N(c2ccc(F)cc2)C(C)C)c1=O 2

Return Plant response rating, B. signalgrass (reported value) for this compound: CC(C)N(C(=O)n1oc(=O)n(C2CCCCC2C(F)(F)F)c1=O)c1ccc(F)cc1 (stereo not shown) 2

Return Plant response rating, B. signalgrass (reported value) for this compound: Cc1ccccc1-n1c(=O)on(C(=O)N(C2=CCOCC2)C(C)C)c1=O 8

Return Plant response rating, B. signalgrass (reported value) for this compound: Cc1ccccc1-n1c(=O)on(C(=O)N(c2ccc(Cl)cc2)C(C)C)c1=O 4

Return Plant response rating, B. signalgrass (reported value) for this compound: CC(C)N(C(=O)n1oc(=O)n(-c2cc(Cl)cc(Cl)c2)c1=O)C1=CCOCC1 0

Return Plant response rating, B. signalgrass (reported value) for this compound: CC(C)N(C(=O)n1oc(=O)n(C2CCCCC2)c1=O)c1ccc(Cl)cc1 1

* * *

- Tested on: bedstraw
- Experimental Details: Test B pre/postemergence bedstraw
- Assay type: in vivo, Galium aparine
- Run Parameters: Preemergence, Rate 500 g/ha; scale of 0 to 10 where 0 is no effect and 10 is complete control
Metric: Plant response rating, Bedstraw
Format: numeric value only, no unit, no commentary.

C=CCn1c(=O)on(C(=O)N(c2ccc(F)cc2)C2CCC2)c1=O
10

Return Plant response rating, Bedstraw (reported value) for this compound: CC(C)N(C(=O)n1oc(=O)n(Cc2ccco2)c1=O)c1ccc(F)cc1 0

Return Plant response rating, Bedstraw (reported value) for this compound: CC(C)N(C(=O)n1oc(=O)n(C2CCCC2)c1=O)c1ccc(F)cc1F 8

Return Plant response rating, Bedstraw (reported value) for this compound: Cc1ccccc1-n1c(=O)on(C(=O)N(c2ccc(Cl)cc2F)C(C)C)c1=O 2

Return Plant response rating, Bedstraw (reported value) for this compound: CC(C)N(C(=O)n1oc(=O)n(CC2(C)COC2)c1=O)c1ccc(F)cc1 0

Return Plant response rating, Bedstraw (reported value) for this compound: CC(C)N(C(=O)n1oc(=O)n(CC(=O)OC(C)(C)C)c1=O)c1ccc(F)cc1 0

Return Plant response rating, Bedstraw (reported value) for this compound: Cc1ccccc1-n1c(=O)on(C(=O)N(c2ccc(F)cc2)C(C)C2CC2)c1=O (stereo not shown) 0

* * *

- Tested on: cocklebur
- Experimental Details: Test B pre/postemergence cocklebur
- Format: in vivo, Xanthium strumarium
- Run Parameters: Postemergence, Rate 125 g/ha; scale 0 to 10, 0 is no effect, 10 is complete control
Metric: Cocklebur plant response rating

CCOCn1c(=O)on(C(=O)N(c2ccccc2)C(C)C)c1=O
0
CC(C)N(C(=O)n1oc(=O)n(CCC2OCCO2)c1=O)c1ccc(Cl)cc1
0
CCOC(=O)C=C(Cn1c(=O)on(C(=O)N(c2ccccc2)C(C)C)c1=O)OCC
0

--- query ---
Return Cocklebur plant response rating (reported value) for this compound: CC(C)N(C(=O)n1oc(=O)n(CCc2ccccc2)c1=O)c1ccc(F)cc1F 1
